tested on: A375 multi-cell spheroids with HUVEC/MSC, viability; assay: Anticancer human tumor A375 cell line growth inhibition [GQUAD]; details: second compound 0.1 µM; first compound 0.1 µM; stronger effect = lower value;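 further: spheroids exposed to compounds for seven days before readout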
In plain terms, low viability, T/C, meaning strictly below 70%, gives Met, and everything else gives Not met.

Compound	Class
O=c1[nH]cc(F)c(=O)[nH]1 + Cc1[nH]c2ccc(F)cc2c1-c1nc2c3cccnc3c3ncccc3c2[nH]1	Not met
C=CCn1c(=O)c2cnc(Nc3ccc(N4CCN(C)CC4)cc3)nc2n1-c1cccc(C(C)(C)O)n1 + CN(C)c1ccc(Nc2c3ccc(NC(=O)CCN4CCCC4)cc3nc3cc(NC(=O)CCN4CCCC4)ccc23)cc1	Not met
O=c1[nH]cc(F)c(=O)[nH]1 + Cc1cnc(CNC(=O)c2c(=O)c3ccc(N4CCCN(C)CC4)nc3n3c2sc2ccccc23)cn1	Met
O=C(NO)c1cnc(N2CCN(S(=O)(=O)c3ccc4ccccc4c3)CC2)nc1 + CN(C)c1ccc(Nc2c3ccc(NC(=O)CCN4CCCC4)cc3nc3cc(NC(=O)CCN4CCCC4)ccc23)cc1	Not met
Nc1ccn(C2OC(CO)C(O)C2(F)F)c(=O)n1 (stereo not drawn) + CN(C)c1ccc(Nc2c3ccc(NC(=O)CCN4CCCC4)cc3nc3cc(NC(=O)CCN4CCCC4)ccc23)cc1	Met
COc1ncnc(C2CC2)c1-c1ncc2cnn(Cc3ccc(-c4nc(C(F)(F)F)cn4C(C)C)cc3)c2n1 + Cc1cnc(CNC(=O)c2c(=O)c3ccc(N4CCCN(C)CC4)nc3n3c2sc2ccccc23)cn1	Not met

###

tested on: A375 multi-cell spheroids with HUVEC/MSC, viability; assay: Anticancer human tumor A375 cell line growth inhibition [GQUAD]; settings: second compound 1 µM; first compound 0.0316 µM; stronger effect = lower value;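 further: spheroids exposed to compounds for seven days before readout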

Compound	viability, T/C (%)
CC1COCCN1c1cc(-c2ccnn2C)c2ccnc(-c3ccn[nH]3)c2n1 (stereo not drawn) + Cc1cnc(CNC(=O)c2c(=O)c3ccc(N4CCCN(C)CC4)nc3n3c2sc2ccccc23)cn1	38.2
O=C(c1cc(Cc2n[nH]c(=O)c3ccccc23)ccc1F)N1CCN(C(=O)C2CC2)CC1 + Cc1[nH]c2ccc(F)cc2c1-c1nc2c3cccnc3c3ncccc3c2[nH]1	96.2
O=c1[nH]cc(F)c(=O)[nH]1 + Cc1cnc(CNC(=O)c2c(=O)c3ccc(N4CCCN(C)CC4)nc3n3c2sc2ccccc23)cn1	44.9

###

test system: A375 multi-cell spheroids with HUVEC/MSC, viability; test: Anticancer human tumor A375 cell line growth inhibition [GQUAD]; conditions: second compound 1 µM; first compound 1 µM; stronger effect = lower value;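 further: spheroids exposed to compounds for seven days before readout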

Compound	viability, T/C [%]
COc1ccc([C@@H](O)c2cc(-c3ncnc4cc(N5CCOCC5)ccc34)c(F)cc2Cl)nn1 + Cc1[nH]c2ccc(F)cc2c1-c1nc2c3cccnc3c3ncccc3c2[nH]1	113
O=C(NO)c1cnc(N2CCN(S(=O)(=O)c3ccc4ccccc4c3)CC2)nc1 + Cc1cnc(CNC(=O)c2c(=O)c3ccc(N4CCCN(C)CC4)nc3n3c2sc2ccccc23)cn1	0.11
CC1COCCN1c1cc(-c2ccnn2C)c2ccnc(-c3ccn[nH]3)c2n1 (stereo unspecified) + Cc1[nH]c2ccc(F)cc2c1-c1nc2c3cccnc3c3ncccc3c2[nH]1	30
Nc1ccn(C2OC(CO)C(O)C2(F)F)c(=O)n1 (stereo unspecified) + CN(C)c1ccc(Nc2c3ccc(NC(=O)CCN4CCCC4)cc3nc3cc(NC(=O)CCN4CCCC4)ccc23)cc1	6.93
O=C(c1cc(Cc2n[nH]c(=O)c3ccccc23)ccc1F)N1CCN(C(=O)C2CC2)CC1 + Cc1cnc(CNC(=O)c2c(=O)c3ccc(N4CCCN(C)CC4)nc3n3c2sc2ccccc23)cn1	35.7
O=c1[nH]cc(F)c(=O)[nH]1 + CN(C)c1ccc(Nc2c3ccc(NC(=O)CCN4CCCC4)cc3nc3cc(NC(=O)CCN4CCCC4)ccc23)cc1	104
COc1ncnc(C2CC2)c1-c1ncc2cnn(Cc3ccc(-c4nc(C(F)(F)F)cn4C(C)C)cc3)c2n1 + Cc1[nH]c2ccc(F)cc2c1-c1nc2c3cccnc3c3ncccc3c2[nH]1	106
CC(C)n1c(=O)n(C)c2cnc3cc(F)c(-c4ccc(OCCCN5CCCCC5)nc4)cc3c21 + CN(C)c1ccc(Nc2c3ccc(NC(=O)CCN4CCCC4)cc3nc3cc(NC(=O)CCN4CCCC4)ccc23)cc1	108
C#Cc1c(F)ccc2cc(O)cc(-c3ncc4c(N5CC6CCC(C5)N6)nc(OCC56CCCN5CC(F)C6)nc4c3F)c12 (stereo unspecified) + Cc1[nH]c2ccc(F)cc2c1-c1nc2c3cccnc3c3ncccc3c2[nH]1	97.2
O=C(c1cc(Cc2n[nH]c(=O)c3ccccc23)ccc1F)N1CCN(C(=O)C2CC2)CC1 + Cc1[nH]c2ccc(F)cc2c1-c1nc2c3cccnc3c3ncccc3c2[nH]1	102
COc1ncnc(C2CC2)c1-c1ncc2cnn(Cc3ccc(-c4nc(C(F)(F)F)cn4C(C)C)cc3)c2n1 + Cc1cnc(CNC(=O)c2c(=O)c3ccc(N4CCCN(C)CC4)nc3n3c2sc2ccccc23)cn1	38.5

###

tested on: A375 multi-cell spheroids with HUVEC/MSC, viability; assay: Anticancer human tumor A375 cell line growth inhibition [GQUAD]; settings: curve of first compound; second compound 3.16 µM;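 further: spheroids exposed to compounds for seven days before readout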
pIC50: −log10 of the molar value.
This listing pairs compounds with measured pIC50.

Compound	Value Prefix	pIC50
C=CC(=O)N1CCN(c2nc(=O)n(-c3c(C)ccnc3C(C)C)c3nc(-c4c(O)cccc4F)c(F)cc23)C(C)C1 (stereo not given) + Cc1[nH]c2ccc(F)cc2c1-c1nc2c3cccnc3c3ncccc3c2[nH]1	<	5.00
CC(C)n1c(=O)n(C)c2cnc3cc(F)c(-c4ccc(OCCCN5CCCCC5)nc4)cc3c21 + Cc1[nH]c2ccc(F)cc2c1-c1nc2c3cccnc3c3ncccc3c2[nH]1	=	5.30
COc1ncnc(C2CC2)c1-c1ncc2cnn(Cc3ccc(-c4nc(C(F)(F)F)cn4C(C)C)cc3)c2n1 + CN(C)c1ccc(Nc2c3ccc(NC(=O)CCN4CCCC4)cc3nc3cc(NC(=O)CCN4CCCC4)ccc23)cc1	<	5.00
C=CCn1c(=O)c2cnc(Nc3ccc(N4CCN(C)CC4)cc3)nc2n1-c1cccc(C(C)(C)O)n1 + CN(C)c1ccc(Nc2c3ccc(NC(=O)CCN4CCCC4)cc3nc3cc(NC(=O)CCN4CCCC4)ccc23)cc1	=	5.84
O=c1[nH]cc(F)c(=O)[nH]1 + Cc1cnc(CNC(=O)c2c(=O)c3ccc(N4CCCN(C)CC4)nc3n3c2sc2ccccc23)cn1	>	7.50

###

system: A375 multi-cell spheroids with HUVEC/MSC, viability; assay: Anticancer human tumor A375 cell line growth inhibition [GQUAD]; settings: second compound 0.0316 µM; first compound 0.316 µM; stronger effect = lower value;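 further: spheroids exposed to compounds for seven days before readout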
Property: viability, T/C (%)

Molecule	Assay System	Observed Measurement
C=CC(=O)N1CCN(c2nc(=O)n(-c3c(C)ccnc3C(C)C)c3nc(-c4c(O)cccc4F)c(F)cc23)C(C)C1 (centres undefined) + CN(C)c1ccc(Nc2c3ccc(NC(=O)CCN4CCCC4)cc3nc3cc(NC(=O)CCN4CCCC4)ccc23)cc1	A375 multi-cell spheroids with HUVEC/MSC, viability	94.9
CCc1c2c(nc3ccc(O)cc13)-c1cc3c(c(=O)n1C2)COC(=O)[C@]3(O)CC + Cc1cnc(CNC(=O)c2c(=O)c3ccc(N4CCCN(C)CC4)nc3n3c2sc2ccccc23)cn1	A375 multi-cell spheroids with HUVEC/MSC, viability	0.45
CC(=O)O[C@H]1C(=O)[C@@]2(C)[C@H]([C@H](OC(=O)c3ccccc3)[C@]3(O)C[C@H](OC(=O)[C@H](O)[C@@H](NC(=O)c4ccccc4)c4ccccc4)C(C)=C1C3(C)C)[C@]1(OC(C)=O)CO[C@@H]1C[C@@H]2O + Cc1cnc(CNC(=O)c2c(=O)c3ccc(N4CCCN(C)CC4)nc3n3c2sc2ccccc23)cn1	A375 multi-cell spheroids with HUVEC/MSC, viability	18.5
CC(=O)O[C@H]1C(=O)[C@@]2(C)[C@H]([C@H](OC(=O)c3ccccc3)[C@]3(O)C[C@H](OC(=O)[C@H](O)[C@@H](NC(=O)c4ccccc4)c4ccccc4)C(C)=C1C3(C)C)[C@]1(OC(C)=O)CO[C@@H]1C[C@@H]2O + Cc1[nH]c2ccc(F)cc2c1-c1nc2c3cccnc3c3ncccc3c2[nH]1	A375 multi-cell spheroids with HUVEC/MSC, viability	9.66

###

system: A375 multi-cell spheroids with HUVEC/MSC, viability; test: Anticancer human tumor A375 cell line growth inhibition [GQUAD]; conditions: curve of first compound; second compound 0.1 µM;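 further: spheroids exposed to compounds for seven days before readout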
# reported IC50; entries follow

Compound	IC50
O=c1[nH]cc(F)c(=O)[nH]1 + CN(C)c1ccc(Nc2c3ccc(NC(=O)CCN4CCCC4)cc3nc3cc(NC(=O)CCN4CCCC4)ccc23)cc1	> 10000 nM
COc1cc(C2c3cc4c(cc3C(OC3OC5COC(C)OC5C(O)C3O)C3COC(=O)C23)OCO4)cc(OC)c1O (configuration not stated) + CN(C)c1ccc(Nc2c3ccc(NC(=O)CCN4CCCC4)cc3nc3cc(NC(=O)CCN4CCCC4)ccc23)cc1	966 nM
O=C(NO)c1cnc(N2CCN(S(=O)(=O)c3ccc4ccccc4c3)CC2)nc1 + CN(C)c1ccc(Nc2c3ccc(NC(=O)CCN4CCCC4)cc3nc3cc(NC(=O)CCN4CCCC4)ccc23)cc1	191 nM
CCc1c2c(nc3ccc(O)cc13)-c1cc3c(c(=O)n1C2)COC(=O)[C@]3(O)CC + Cc1cnc(CNC(=O)c2c(=O)c3ccc(N4CCCN(C)CC4)nc3n3c2sc2ccccc23)cn1	< 0.999 nM
Cc1[nH]c2ccccc2c1CCNCc1ccc(/C=C/C(=O)NO)cc1 + Cc1[nH]c2ccc(F)cc2c1-c1nc2c3cccnc3c3ncccc3c2[nH]1	150 nM
CC(C)(O)C1CCC(Nc2ccc3ncc(-c4cccc(C(F)(F)F)c4)n3n2)CC1 (configuration not stated) + CN(C)c1ccc(Nc2c3ccc(NC(=O)CCN4CCCC4)cc3nc3cc(NC(=O)CCN4CCCC4)ccc23)cc1	> 10000 nM
CC1COCCN1c1cc(C2(S(C)(=N)=O)CC2)nc(-c2ccnc3[nH]ccc23)n1 (configuration not stated) + Cc1[nH]c2ccc(F)cc2c1-c1nc2c3cccnc3c3ncccc3c2[nH]1	8020 nM
O=C(c1cc(Cc2n[nH]c(=O)c3ccccc23)ccc1F)N1CCN(C(=O)C2CC2)CC1 + CN(C)c1ccc(Nc2c3ccc(NC(=O)CCN4CCCC4)cc3nc3cc(NC(=O)CCN4CCCC4)ccc23)cc1	> 10000 nM
COc1ncnc(C2CC2)c1-c1ncc2cnn(Cc3ccc(-c4nc(C(F)(F)F)cn4C(C)C)cc3)c2n1 + Cc1cnc(CNC(=O)c2c(=O)c3ccc(N4CCCN(C)CC4)nc3n3c2sc2ccccc23)cn1	> 10000 nM
COc1ncnc(C2CC2)c1-c1ncc2cnn(Cc3ccc(-c4nc(C(F)(F)F)cn4C(C)C)cc3)c2n1 + Cc1[nH]c2ccc(F)cc2c1-c1nc2c3cccnc3c3ncccc3c2[nH]1	> 10000 nM
CCc1c2c(nc3ccc(O)cc13)-c1cc3c(c(=O)n1C2)COC(=O)[C@]3(O)CC + CN(C)c1ccc(Nc2c3ccc(NC(=O)CCN4CCCC4)cc3nc3cc(NC(=O)CCN4CCCC4)ccc23)cc1	< 0.999 nM
Nc1ccn(C2OC(CO)C(O)C2(F)F)c(=O)n1 (configuration not stated) + Cc1cnc(CNC(=O)c2c(=O)c3ccc(N4CCCN(C)CC4)nc3n3c2sc2ccccc23)cn1	< 31.6 nM
